Where do the numbers come from? From patent US10918645B2.

- experimentalSystem: AuroraB (Homo sapiens (Human))
- Sequence (Q96GD4 whole entry): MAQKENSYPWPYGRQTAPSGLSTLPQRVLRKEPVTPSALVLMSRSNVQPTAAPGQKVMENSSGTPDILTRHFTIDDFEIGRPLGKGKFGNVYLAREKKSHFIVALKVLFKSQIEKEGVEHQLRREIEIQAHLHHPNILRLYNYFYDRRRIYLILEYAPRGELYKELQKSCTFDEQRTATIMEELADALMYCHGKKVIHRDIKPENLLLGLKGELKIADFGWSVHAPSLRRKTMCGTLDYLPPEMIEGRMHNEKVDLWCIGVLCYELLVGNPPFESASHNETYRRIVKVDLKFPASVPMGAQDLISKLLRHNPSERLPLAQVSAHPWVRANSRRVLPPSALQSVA
- protocolDetails: AuroraB kinase selectivity assay
- Format: biochemical
- testParameters: 1 μM inhibitor concentration
assayReadout: percentage inhibition of AuroraB
Please give the number followed by its unit.

Problem: // returns reported percentage inhibition of AuroraB for input c1cc2[nH]nc3c2c(n1)N(C1CCCC1)CCC3 [Example 23]
Solution: 1 percentage

Problem: Requested field: percentage inhibition of AuroraB. Item: CN1CCC(N2Cc3ccccc3-c3n[nH]c4ccnc2c34)CC1 [Example 55]
Solution: 38 percentage

Problem: Using the record for c1cc2[nH]nc3c2c(n1)N(C1CCOCC1)CCC3 [Example 29] , report its percentage inhibition of AuroraB.
Solution: 29 percentage

Problem: Fill in: percentage inhibition of AuroraB of CC(C)n1ncc2c1CN(C1CCN(C)CC1)c1nccc3[nH]nc-2c13 [Example 68] is ___
Solution: 19 percentage

Problem: Dear colleague, I am looking for the recorded percentage inhibition of AuroraB of the following compound: c1cc2[nH]nc3c2c(n1)N(C1CCC1)CCC3 [Example 22]
Solution: 23 percentage
